From: patent US20200077648A1

- Tested on: soy bean plants
- run-description: Plant compatibility test using soy bean plants
- Type: in vivo
- condition-notes: soy bean young plants sprayed, rate of application of active compound 500 ppm, evaluated 6 days after application; 0% = no damages, 100% = plants totally damaged
Exercise: for every item that follows, state its recorded Necrosis in %.
Just the number in %, nothing appended.

Looking for the measured Necrosis in % of "Cc1cc(N=CN(C)C(C)C)c(Cl)cc1Oc1ccccc1F" , can you help?
10

Tell me the measured Necrosis in % of "CCN(C)C=Nc1cc(C(F)F)c(Oc2ccccc2C#N)cc1C" , please.
0

Recorded Necrosis in % for "CCN(C)C=Nc1cc(Br)c(Oc2ccccc2)cc1C" , please?
40

Data request, read-out Necrosis in %, for "CCN(C)C=Nc1cc(Cl)c(Oc2cccc(Cl)c2)cc1C"
30

Fill in: Necrosis in % of "CCN(C)C=Nc1cc(OC)c(Oc2ccccc2)cc1C" is ___
30

What value of measured Necrosis in % is listed for "CCN(C)C=Nc1cc(C)c(Oc2cccc(F)c2)cc1C" ?
80

Dear colleague, I am looking for the recorded Necrosis in % of the following compound: "CCN(C)C=Nc1cc(C)c(Oc2cccc(F)c2)cc1Cl"
10

Entry "CCN(C)C=Nc1cc(C)c(Oc2cccc(F)c2C#N)cc1Cl" has what Necrosis in %?
20

# query: Necrosis in % of entry "Cc1cc(Oc2ccccc2F)c(C)cc1N=CN(C)C(C)C"
40

Looking for the measured Necrosis in % of "CCN(C)C=Nc1cc(C)c(Oc2ccc(F)cc2)cc1Cl" , can you help?
5
